I'd be grateful if you could share measured MIC99 for these entries.
System: Salmonella typhi
Test: Antibacterial activity against 10^8 CFU/mL Salmonella typhi MTCC 98 by broth microdilution method
Format: functional, Salmonella enterica subsp. enterica serovar Typhi
Conditions: Salmonella enterica
Reply with just the number (in µg/mL).

Req: I am curious: what MIC99 value has been reported for CC1=C(c2nnc(/N=C3\C(=O)Nc4ccc(Cl)cc43)s2)C(c2ccccc2)NC(=S)N1 (stereo not drawn) ?
Resp: 200

Req: Which MIC99 value belongs to CC1=C(c2nnc(/N=C3\C(=O)Nc4ccc(I)cc43)s2)C(c2ccccc2)NC(=O)N1 (stereo not drawn) ?
Resp: 250

Req: Quick one: MIC99 for CC1=C(c2nnc(/N=C3\C(=O)Nc4ccc([N+](=O)[O-])cc43)s2)C(c2ccccc2)NC(=S)N1 (stereo not drawn) ?
Resp: 100

Req: Which value of MIC99 has been reported for `O=C(O)c1cn(C2CC2)c2cc(N3CCNCC3)c(F)cc2c1=O` in the records?
Resp: 25

Req: Find the recorded MIC99 belonging to CC1=C(c2nnc(/N=C3\C(=O)Nc4ccc(Cl)cc43)s2)C(c2ccccc2)NC(=O)N1 (stereo not drawn) and report it.
Resp: 200

Req: What value of measured MIC99 is listed for `CCn1cc(C(=O)O)c(=O)c2cc(F)c(N3CCNCC3)cc21` ?
Resp: 10

Req: Dear colleague, I am looking for the recorded MIC99 of the following molecule: CC1=C(c2nnc(/N=C3\C(=O)Nc4ccc(Br)cc43)s2)C(c2ccccc2)NC(=O)N1 (stereo not drawn)
Resp: 250

Req: Give its MIC99 value. Item: CC1=C(c2nnc(/N=C3\C(=O)Nc4ccc(F)cc43)s2)C(c2ccccc2)NC(=O)N1 (stereo not drawn)
Resp: 100

###

Test system: Salmonella typhi
Experiment: Antibacterial activity against 10^8 CFU/mL Salmonella typhi MTCC 98 by broth microdilution method
Assay type: functional, Salmonella enterica subsp. enterica serovar Typhi
Conditions: Salmonella enterica
Would you kindly list MIC99 for each of these compounds?
Quick note: give the figure in µg/mL, leave out the unit.

Req: API: value(readout=MIC99, system=Salmonella typhi) for record CC1(C)S[C@@H]2[C@H](NC(=O)[C@H](N)c3ccccc3)C(=O)N2[C@H]1C(=O)O [AMPICILLIN]
Resp: 100

Req: Missing value: MIC99, Salmonella typhi, entry CC1=C(c2nnc(/N=C3\C(=O)Nc4ccc(F)cc43)s2)C(c2ccccc2)NC(=S)N1 (stereo not drawn) . Fill in?
Resp: 100

Req: Under Salmonella typhi: MIC99 value of CC1=C(c2nnc(/N=C3\C(=O)Nc4ccccc43)s2)C(c2ccccc2)NC(=O)N1 (stereo not drawn) ?
Resp: 250

Req: So what MIC99 did CC1=C(c2nnc(/N=C3\C(=O)Nc4ccc(Br)cc43)s2)C(c2ccccc2)NC(=S)N1 (stereo not drawn) get with Salmonella typhi?
Resp: 250

Req: // lookup MIC99 | system=Salmonella typhi | key= CC1=C(c2nnc(/N=C3\C(=O)Nc4ccc([N+](=O)[O-])cc43)s2)C(c2ccccc2)NC(=O)N1 (stereo not drawn)
Resp: 200

Req: Recall the recorded MIC99 for CC1=C(c2nnc(/N=C3\C(=O)Nc4ccccc43)s2)C(c2ccccc2)NC(=S)N1 (stereo not drawn) with Salmonella typhi and state it.
Resp: 200

Req: Report MIC99 for O=C(N[C@H](CO)[C@H](O)c1ccc([N+](=O)[O-])cc1)C(Cl)Cl [CHLORAMPHENICOL] tested on Salmonella typhi.
Resp: 50

Req: Look up MIC99 with Salmonella typhi for this compound: CC1=C(c2nnc(/N=C3\C(=O)Nc4ccc(I)cc43)s2)C(c2ccccc2)NC(=S)N1 (stereo not drawn)
Resp: 250

###

Tested on: Aspergillus clavatus
Experiment: Antifungal activity against 10^8 CFU/mL Aspergillus clavatus MTCC 1323 by broth microdilution method
Type: functional
Assignment: determine reported MIC for the given compounds.
Respond with the bare value in µg/mL.

Req: Quick one: MIC of CC1=C(c2nnc(/N=C3\C(=O)Nc4ccc(Br)cc43)s2)C(c2ccccc2)NC(=S)N1 (stereo not drawn) ?
Resp: 500

Req: Which MIC value belongs to CC1=C(c2nnc(/N=C3\C(=O)Nc4ccc(F)cc43)s2)C(c2ccccc2)NC(=S)N1 (stereo not drawn) ?
Resp: 100

Req: I have this compound here, CC1=C(c2nnc(/N=C3\C(=O)Nc4ccc([N+](=O)[O-])cc43)s2)C(c2ccccc2)NC(=O)N1 (stereo not drawn) , and I need its recorded MIC.
Resp: 500

Req: // MIC lookup, key: `COC1=CC(=O)C[C@@H](C)[C@]12Oc1c(Cl)c(OC)cc(OC)c1C2=O`
Resp: 100

Req: Fill in: MIC of CC1=C(c2nnc(/N=C3\C(=O)Nc4ccc(Cl)cc43)s2)C(c2ccccc2)NC(=O)N1 (stereo not drawn) is ___
Resp: 500

Req: Given the entry CC1=C(c2nnc(/N=C3\C(=O)Nc4ccccc43)s2)C(c2ccccc2)NC(=O)N1 (stereo not drawn) , report its measured MIC.
Resp: 250

Req: I would be grateful if you could share the reported MIC for CC1=C(c2nnc(/N=C3\C(=O)Nc4ccccc43)s2)C(c2ccccc2)NC(=S)N1 (stereo not drawn) .
Resp: 500

Req: Which MIC reading was recorded for the compound CC1=C(c2nnc(/N=C3\C(=O)Nc4ccc(F)cc43)s2)C(c2ccccc2)NC(=O)N1 (stereo not drawn) ?
Resp: 200

Req: For CC1=C(c2nnc(/N=C3\C(=O)Nc4ccc([N+](=O)[O-])cc43)s2)C(c2ccccc2)NC(=S)N1 (stereo not drawn) , what is its reported MIC?
Resp: 250

Req: For CC1=C(c2nnc(/N=C3\C(=O)Nc4ccc(Cl)cc43)s2)C(c2ccccc2)NC(=S)N1 (stereo not drawn) , what is its reported MIC?
Resp: 500

###

Tested on: Staphylococcus aureus
Assay: Antibacterial activity against 10^8 CFU/mL Staphylococcus aureus MTCC 96 by broth microdilution method
Assay type: functional
Kindly state MIC99 for each of the entries shown.

Req: Item CC1=C(c2nnc(/N=C3\C(=O)Nc4ccc([N+](=O)[O-])cc43)s2)C(c2ccccc2)NC(=O)N1 (configuration not stated) with Staphylococcus aureus - MIC99?
Resp: 200 µg/mL

Req: Could you share what MIC99 was measured for `CC1(C)S[C@@H]2[C@H](NC(=O)[C@H](N)c3ccccc3)C(=O)N2[C@H]1C(=O)O` , tested on Staphylococcus aureus?
Resp: 250 µg/mL

Req: Given the entry `O=C(O)c1cn(C2CC2)c2cc(N3CCNCC3)c(F)cc2c1=O` , what MIC99 was observed with Staphylococcus aureus?
Resp: 50 µg/mL

Req: Form: Entry = CC1=C(c2nnc(/N=C3\C(=O)Nc4ccc(F)cc43)s2)C(c2ccccc2)NC(=S)N1 (configuration not stated) | System = Staphylococcus aureus | MIC99 = ____
Resp: 62.5 µg/mL

Req: Any idea what MIC99 came out for CC1=C(c2nnc(/N=C3\C(=O)Nc4ccc(Cl)cc43)s2)C(c2ccccc2)NC(=S)N1 (configuration not stated) on Staphylococcus aureus?
Resp: 200 µg/mL

Req: Hello, I am looking for reported MIC99 with Staphylococcus aureus for `CCn1cc(C(=O)O)c(=O)c2cc(F)c(N3CCNCC3)cc21` . Could you help?
Resp: 10 µg/mL

Req: Give Staphylococcus aureus MIC99 for CC1=C(c2nnc(/N=C3\C(=O)Nc4ccccc43)s2)C(c2ccccc2)NC(=S)N1 (configuration not stated)
Resp: 200 µg/mL

###

Tested on: Staphylococcus aureus
Test: Antibacterial activity against 10^8 CFU/mL Staphylococcus aureus MTCC 96 by broth microdilution method
Type: functional
readoutType: MIC99 (µg/mL)
Just the number please, in µg/mL, no unit attached.

Req: What MIC99 value was documented for this molecule, CC1=C(c2nnc(/N=C3\C(=O)Nc4ccc(Br)cc43)s2)C(c2ccccc2)NC(=S)N1 (centres undefined) ?
Resp: 100

Req: May I ask what MIC99 has been recorded for CC1=C(c2nnc(/N=C3\C(=O)Nc4ccccc43)s2)C(c2ccccc2)NC(=O)N1 (centres undefined) ?
Resp: 500

Req: What value of measured MIC99 is listed for CC1=C(c2nnc(/N=C3\C(=O)Nc4ccc(F)cc43)s2)C(c2ccccc2)NC(=O)N1 (centres undefined) ?
Resp: 62.5

Req: Entry CC1=C(c2nnc(/N=C3\C(=O)Nc4ccc(I)cc43)s2)C(c2ccccc2)NC(=O)N1 (centres undefined) : reported MIC99 = ?
Resp: 250

Req: Sample `O=C(N[C@H](CO)[C@H](O)c1ccc([N+](=O)[O-])cc1)C(Cl)Cl` — what was its MIC99?
Resp: 50

Req: Need MIC99 of CC1=C(c2nnc(/N=C3\C(=O)Nc4ccc([N+](=O)[O-])cc43)s2)C(c2ccccc2)NC(=S)N1 (centres undefined) , thanks.
Resp: 100

Req: Need MIC99, item CC1=C(c2nnc(/N=C3\C(=O)Nc4ccc(Cl)cc43)s2)C(c2ccccc2)NC(=O)N1 (centres undefined)
Resp: 200

Req: Given CC1=C(c2nnc(/N=C3\C(=O)Nc4ccc(Br)cc43)s2)C(c2ccccc2)NC(=O)N1 (centres undefined) , state its recorded MIC99.
Resp: 100

Req: Name the recorded MIC99 for CC1=C(c2nnc(/N=C3\C(=O)Nc4ccc(I)cc43)s2)C(c2ccccc2)NC(=S)N1 (centres undefined) .
Resp: 200
